# assay-system: Voltage-gated L-type calcium channel (Homo sapiens, UniProt Q13936+Q13698+Q01668+O60840)
# experiment-summary: Displacement of [3H]PN-200110 from voltage-dependent L-type calcium channel (unknown origin) by scintillation counting method
Measured IC50 values are reported for all entries that follow.
Give a bare numeral; the unit µM is implied.

CCOC(=O)C1=C(C)NC(C)=C(C(=O)OCc2cn(CCOCCOCCOCCOCCOCCn3cc(COC(=O)C4=C(C)NC(C)=C(C(=O)OCC)C4c4c(-c5cccc(Br)c5)noc4C)nn3)nn2)C1c1c(-c2cccc(Br)c2)noc1C (stereo not drawn) = 3.766

Next, consider the following compound.
-- ask What does the data say about its IC50? Entry: CCOC(=O)C1=C(C)NC(C)=C(C(=O)OCc2cn(CCOCCOCCOCCOCCOCCn3cc(COC(=O)C4=C(C)NC(C)=C(C(=O)OCC)C4c4c(-c5ccc(Br)cc5)noc4C)nn3)nn2)C1c1c(-c2ccc(Br)cc2)noc1C (stereo not drawn)
-- reply 2.706
